Multi-source literature compilation: IC50 on G protein-coupled receptor kinase 5 (Homo sapiens, UniProt P34947).
Sequence (P34947 whole entry): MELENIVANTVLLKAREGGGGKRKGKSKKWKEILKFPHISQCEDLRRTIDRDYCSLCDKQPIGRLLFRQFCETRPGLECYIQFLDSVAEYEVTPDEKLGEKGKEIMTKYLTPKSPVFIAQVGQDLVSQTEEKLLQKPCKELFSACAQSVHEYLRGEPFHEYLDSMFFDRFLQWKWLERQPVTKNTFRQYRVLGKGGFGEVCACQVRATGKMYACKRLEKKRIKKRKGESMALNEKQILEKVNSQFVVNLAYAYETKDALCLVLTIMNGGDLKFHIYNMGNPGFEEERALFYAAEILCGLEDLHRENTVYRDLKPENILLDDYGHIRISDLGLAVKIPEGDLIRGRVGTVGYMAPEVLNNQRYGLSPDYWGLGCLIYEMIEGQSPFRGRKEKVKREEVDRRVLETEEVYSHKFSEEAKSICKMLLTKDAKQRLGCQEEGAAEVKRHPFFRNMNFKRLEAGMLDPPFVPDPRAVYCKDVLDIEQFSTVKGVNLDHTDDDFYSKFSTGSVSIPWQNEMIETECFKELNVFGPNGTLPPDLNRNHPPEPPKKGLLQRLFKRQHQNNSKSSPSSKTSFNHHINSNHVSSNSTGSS
One number for each entry, in µM.

> print(dat)
                               query.smiles  endpoint.result
1  Nc1ncc(-c2cnn(C3CCNCC3)c2)cc1-c1nc2ccc(-c3ccc4[nH]ncc4c3)cc2o1             1.14
2  Cc1n[nH]c2cc(Nc3nc(NC4CC4)c4occc4n3)ccc12             9.96
3  COc1ccc(C(=O)Nc2ccc3nc(-c4cc(-c5cnn(C6CCNCC6)c5)cnc4N)oc3c2)cc1             2.09
4           C=CC(=O)Nc1nc2cnc3[nH]ccc3c2n1C              9.4
5  Nc1ncc(-c2cnn(C3CCNCC3)c2)cc1-c1nc2ccc(OCc3ccc(F)cc3)cc2o1             1.31
6  Nc1ncc(-c2cnn(C3CCNCC3)c2)cc1-c1nc2ccc(Nc3ccc(F)cc3)cc2o1              3.7

Count: 2. Required value per item: IC50.
1. COc1ccc(-c2ccc3nc(-c4cc(-c5cnn(C6CCNCC6)c5)cnc4N)oc3c2)cc1
2. Cc1[nH]c(/C=C2\C(=O)Nc3ccc(C(=O)N[C@H](C)c4ccc(F)cc4)cc32)c(C)c1NC(=O)C(=O)c1ccccc1

Result:
3.22
1.1

====

Multi-source literature compilation: IC50 on G protein-coupled receptor kinase 5 (Homo sapiens, UniProt P34947).

Answered examples (4):
> print(dat)
                                   molecule                         system.under.test  recorded.metric  endpoint.result
1  CC1=C(C(=O)Nc2ccc3[nH]ncc3c2)C(c2ccc(F)c(C(=O)NC3CC4CCC3(C)C4(C)C)c2)NC(=O)N1 (stereo not drawn)  G protein-coupled receptor kinase 5 (Homo sapiens, UniProt P34947)             IC50         > 100 µM
2  CC1=C(C(=O)Nc2ccc3[nH]ncc3c2)C(c2ccc(F)c(CCC(=O)NCC3(CO)CC3)c2)NC(=O)N1 (stereo not drawn)  G protein-coupled receptor kinase 5 (Homo sapiens, UniProt P34947)             IC50         > 100 µM
3  O=C(NCc1ccccc1)c1cccc(NCc2nc(-c3ccncc3)n[nH]2)c1  G protein-coupled receptor kinase 5 (Homo sapiens, UniProt P34947)             IC50           5.7 µM
4  CCC(C)N(C)C(=O)c1cc(C2NC(=O)NC(C)=C2C(=O)Nc2ccc3[nH]ncc3c2)ccc1F (stereo not drawn)  G protein-coupled receptor kinase 5 (Homo sapiens, UniProt P34947)             IC50         > 100 µM

Count: 4. Required value per item: IC50.
1. Nc1ncc(-c2cnn(C3CCNCC3)c2)cc1-c1nc2ccc(NC(=O)c3ccccc3)cc2o1
2. COc1cccc(OC)c1CNC(=O)Cc1cc(C2NC(=O)NC(C)=C2C(=O)Nc2ccc3[nH]ncc3c2)ccc1F (stereo not drawn)
3. Nc1ccc2nc(-c3cc(-c4cnn(C5CCNCC5)c4)cnc3N)oc2c1
4. COc1cccc(CNC(=O)c2cc(C3NC(=O)NC(C)=C3C(=O)Nc3ccc4[nH]ncc4c3)ccc2F)c1 (stereo not drawn)

Result:
["3.49 µM", "> 100 µM", "1.94 µM", "3.8 µM"]
